// data source = patent US8153596B2

study-system: STAT3:STAT3 (Homo sapiens, UniProt P40763)
Construct: Nuclear extracts containing active STAT1 and STAT3 were preincubated with or without peptidomimetics; endogenous in cells; host or cells: nuclear extracts
Sequence (P40763 2-770 limits assumed, species assumed): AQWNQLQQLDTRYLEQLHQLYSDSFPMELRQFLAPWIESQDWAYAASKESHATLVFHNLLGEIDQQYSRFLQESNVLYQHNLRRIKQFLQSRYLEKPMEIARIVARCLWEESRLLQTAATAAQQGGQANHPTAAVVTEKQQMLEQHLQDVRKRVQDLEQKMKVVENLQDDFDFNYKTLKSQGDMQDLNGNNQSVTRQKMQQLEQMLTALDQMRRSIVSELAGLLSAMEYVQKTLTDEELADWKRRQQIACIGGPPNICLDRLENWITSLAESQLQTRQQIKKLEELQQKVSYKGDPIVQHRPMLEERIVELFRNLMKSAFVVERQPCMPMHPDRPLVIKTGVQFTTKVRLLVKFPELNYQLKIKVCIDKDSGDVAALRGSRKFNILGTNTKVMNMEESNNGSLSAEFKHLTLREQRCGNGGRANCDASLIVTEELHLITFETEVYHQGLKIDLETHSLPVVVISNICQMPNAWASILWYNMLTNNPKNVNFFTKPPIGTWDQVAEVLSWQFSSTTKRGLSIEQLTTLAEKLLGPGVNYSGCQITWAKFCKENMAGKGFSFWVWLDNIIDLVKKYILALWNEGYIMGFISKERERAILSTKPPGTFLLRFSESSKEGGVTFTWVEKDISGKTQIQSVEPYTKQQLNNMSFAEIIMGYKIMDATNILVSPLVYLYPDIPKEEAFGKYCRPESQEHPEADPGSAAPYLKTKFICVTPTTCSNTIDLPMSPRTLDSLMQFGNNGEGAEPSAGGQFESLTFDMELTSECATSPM
experimental-protocol: EMSA of STAT3:STAT3 dimer DNA binding, nuclear extracts preincubated with peptidomimetic, radiolabeled hSIE probe
Type: biochemical
measurement-context: nuclear extracts preincubated 30 min at room temperature; hSIE probe; EMSA; means of three experiments; read-out: STAT3:STAT3 IC50 values
pIC50: −log10 of the molar value.
endpoint-label: pIC50

[[record]]
molecule = "COc1cccc(NC(=O)[C@H](CC(C)C)NC(=O)[C@H](Cc2ccc(OP(=O)(O)O)cc2)NC(=O)c2ccc(C#N)cc2)c1 [ISS840]"
endpoint_label = "pIC50"
meas_value = 3.25

